RORγt (FL) Reporter Assay B or C, % inhibition (value marked *) listing for selected molecules.
# study_system: full-length human RORγt (Homo sapiens (Human), UniProt P51449)
# Sequence (P51449 other isoform, or with tags, fused parts or gaps): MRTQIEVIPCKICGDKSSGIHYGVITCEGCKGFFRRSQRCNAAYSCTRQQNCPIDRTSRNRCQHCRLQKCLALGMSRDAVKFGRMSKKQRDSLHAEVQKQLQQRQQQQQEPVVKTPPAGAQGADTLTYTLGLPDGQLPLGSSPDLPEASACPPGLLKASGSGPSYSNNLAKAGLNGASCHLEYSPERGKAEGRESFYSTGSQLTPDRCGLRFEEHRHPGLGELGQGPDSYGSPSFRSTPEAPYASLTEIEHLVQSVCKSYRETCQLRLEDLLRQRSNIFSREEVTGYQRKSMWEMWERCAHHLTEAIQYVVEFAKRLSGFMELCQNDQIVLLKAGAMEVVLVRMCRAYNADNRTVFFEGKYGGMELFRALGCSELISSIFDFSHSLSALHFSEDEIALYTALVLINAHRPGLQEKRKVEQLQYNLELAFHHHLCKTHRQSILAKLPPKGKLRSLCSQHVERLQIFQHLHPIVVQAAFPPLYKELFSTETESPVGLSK
# assay_overview: RORγt (full-length human) reporter assay, Conditions B or C
# Assay type: cell-based
# condition_label: Conditions B or C; marked *: footnote not given

CC[C@H](Nc1cc(C(F)F)c(-c2sc(C(=O)NC3CCOCC3)nc2C(=O)N2C3CCC2CC3)cn1)C(F)(F)F    98* %

--- query ---
(Q) Hello, please tell me recorded RORγt (FL) Reporter Assay B or C, % inhibition (value marked *) for this one: C[C@H](O)[C@H](C)NC(=O)c1nc(C(=O)N2CCC[C@@H]2C)c(-c2cnc(NC(C)(C)C)cc2C(F)(F)F)s1 (relative stereo)
(A) 122* %

---

# study_system: UniProt:P51449
# assay_overview: RORγt (full-length human) reporter assay, Conditions B or C
# Assay type: cell-based
# condition_label: Conditions B or C; marked *: footnote not given
endpoint_name: RORγt (FL) Reporter Assay B or C, % inhibition (value marked *)

CCC(C)(C)Nc1cc(C(F)F)c(-c2sc(C(=O)NCC(C)(C)O)nc2C(=O)N2CCCC[C@@H]2C)cn1 [Example 95]    109* %
CC(C)(C)CNc1cc(C(F)F)c(-c2sc(C(=O)NCC(C)(C)O)nc2C(=O)N2C3CCC2CC3)cn1 [Example 116]    110* %
C[C@H](Nc1cc(C(F)F)c(-c2sc(C(=O)N[C@H]3COC[C@@H]3O)nc2C(=O)N2CC(F)(F)C[C@@H]2C)cn1)C(F)(F)F [Example 190]    104* %
C[C@H]1CCCN1C(=O)c1nc(C(=O)NCC2(O)CC2)sc1-c1cnc(NC2CCCC2)cc1C(F)F [Example 2]    95* %
C[C@H]1CCCN1C(=O)c1nc(C(=O)NCC(C)(C)O)sc1-c1cnc(NC2(C)CCC2)cc1C(F)F [Example 173]    95* %
C[C@H](Nc1cc(C(F)(F)F)c(-c2sc(C(=O)NCC(C)(C)O)nc2C(=O)N2C3CCC2CC3)cn1)C(F)(F)F [Example 82]    117* %

(Q) Look up UniProt:P51449 data: RORγt (FL) Reporter Assay B or C, % inhibition (value marked *) of C[C@H](CO)NC(=O)c1nc(C(=O)N2CCC[C@@H]2C)c(-c2cnc(NC(C)(C)C)cc2C(F)F)s1 [Example 148] , then report it.
(A) 95* %

(Q) Look up UniProt:P51449 data: RORγt (FL) Reporter Assay B or C, % inhibition (value marked *) of C[C@H](O)[C@@H](C)NC(=O)c1nc(C(=O)N2CCC[C@@H]2C)c(-c2cnc(NC(C)(C)C)cc2C(F)(F)F)s1 (relative stereo) [Example 235] , then report it.
(A) 106* %

(Q) Look up UniProt:P51449 data: RORγt (FL) Reporter Assay B or C, % inhibition (value marked *) of C[C@H]1CC(F)(F)CN1C(=O)c1nc(C(=O)N[C@H]2COC[C@H]2O)sc1-c1cnc(NC2(C)CCC2)cc1C(F)(F)F (relative stereo) [Example 184] , then report it.
(A) 92* %

(Q) Look up UniProt:P51449 data: RORγt (FL) Reporter Assay B or C, % inhibition (value marked *) of C[C@H]1CCCN1C(=O)c1nc(C(=O)NCC(C)(C)O)sc1-c1cnc(NCC(C)(C)C)cc1C(F)(F)F [Example 87] , then report it.
(A) 140* %

(Q) Look up UniProt:P51449 data: RORγt (FL) Reporter Assay B or C, % inhibition (value marked *) of C[C@H]1CCCCN1C(=O)c1nc(C(=O)NCC(C)(C)O)sc1-c1cnc(NCC(C)(C)C)cc1C(F)F [Example 114] , then report it.
(A) 117* %

---

Kd listing for selected compounds.
# study_system: human RORγt ligand binding domain (RORγt LBD) (Homo sapiens (Human), UniProt P51449)
# Sequence (P51449 other isoform, or with tags, fused parts or gaps): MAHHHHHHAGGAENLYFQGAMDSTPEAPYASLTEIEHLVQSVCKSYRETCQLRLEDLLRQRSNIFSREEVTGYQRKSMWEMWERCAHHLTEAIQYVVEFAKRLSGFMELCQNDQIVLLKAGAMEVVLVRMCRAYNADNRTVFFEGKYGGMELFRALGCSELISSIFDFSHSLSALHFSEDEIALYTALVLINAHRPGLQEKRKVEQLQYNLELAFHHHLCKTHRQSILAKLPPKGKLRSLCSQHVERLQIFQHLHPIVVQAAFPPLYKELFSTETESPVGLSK
# assay_overview: RORγt ThermoFluor® assay (thermal shift binding)
# condition_label: read-out: ThermoFluor® Assay, Kd
Kindly provide the numeric value in nM only, without the unit symbol.

Recorded Kd, per entry:
CC(C)(O)CNC(=O)c1nc(C(=O)N2C3CCC2CC3)c(-c2cnc(NC3(C(F)(F)F)CCC3)cc2C(F)(F)F)s1    0.58
C[C@H]1CC(F)(F)CN1C(=O)c1nc(C(=O)NCC(C)(C)O)sc1-c1cnc(NCC2(C(F)(F)F)CC2)cc1C(F)(F)F    0.85

(Q) Look up human RORγt ligand binding domain (RORγt LBD) (Homo sapiens (Human), UniProt P51449) data: Kd of `C[C@H](Nc1cc(C(F)(F)F)c(-c2sc(C(=O)NCC(C)(C)O)nc2C(=O)N2CC(F)(F)C[C@@H]2C)cn1)C1CC1` , then report it.
(A) 1.4

(Q) Look up human RORγt ligand binding domain (RORγt LBD) (Homo sapiens (Human), UniProt P51449) data: Kd of `CC[C@H](Nc1cc(C(F)F)c(-c2sc(C(=O)NC3CCOCC3)nc2C(=O)N2C3CCC2CC3)cn1)C(F)(F)F` , then report it.
(A) 1.1

---

# study_system: full-length human RORγt (Homo sapiens (Human), UniProt P51449)
# assay_overview: RORγt (full-length human) reporter assay, Conditions B or C
# Assay type: cell-based
# condition_label: read-out: RORγt (FL) Reporter Assay B or C, IC50
pIC50 listing for selected molecules.
By convention, pIC50 is the negative base-10 log of a molar concentration.

Recorded pIC50, per entry:
C[C@H]1CC(F)(F)CN1C(=O)c1nc(C(=O)NC2CCS(=O)(=O)CC2)sc1-c1cnc(NC(C)(C)C)cc1C(F)F    7.70
CC[C@H](Nc1cc(C(F)F)c(-c2sc(C(=O)N[C@@H]3CCC[C@H]3O)nc2C(=O)N2CC(F)(F)C[C@@H]2C)cn1)C(F)(F)F    7.30
C[C@H]1CCCN1C(=O)c1nc(C(=O)N[C@H]2COC[C@@H]2O)sc1-c1cnc(NC(C)(C)C)cc1C(F)(F)F    8.51
C[C@H](Nc1cc(C(F)F)c(-c2sc(C(=O)NC3CCC3O)nc2C(=O)N2CCC[C@@H]2C)cn1)C(F)(F)F (stereo partly shown) [Example 386]    7.14
C[C@H]1CCCN1C(=O)c1nc(C(=O)N[C@H](C)C(C)(C)O)sc1-c1cnc(NCC(C)(C)C)cc1C(F)F    6.51
C[C@H](NC(=O)c1nc(C(=O)N2CC(F)(F)C[C@@H]2C)c(-c2cnc(N[C@@H](C3CC3)C(F)(F)F)cc2C(F)F)s1)C(C)(C)O    7.44

(Q) Hello, please tell me recorded pIC50 for this one: `C[C@H]1CCCN1C(=O)c1nc(C(=O)N[C@H]2COC[C@@H]2O)sc1-c1cnc(NC(C)(C)C)cc1C(F)F`
(A) 7.42

---

# study_system: human RORγt ligand binding domain (RORγt LBD) (Homo sapiens (Human), UniProt P51449)
# assay_overview: RORγt ThermoFluor® assay (thermal shift binding)
# condition_label: read-out: ThermoFluor® Assay, Kd
endpoint_name: pKd
By convention, pKd is the negative base-10 log of a molar concentration.

Recorded pKd, per entry:
CC[C@H](Nc1cc(C(F)F)c(-c2sc(C(=O)N[C@H](C)C(C)(C)O)nc2C(=O)N2CCC[C@@H]2C)cn1)C(F)(F)F    8.48
C[C@H]1CC(F)(F)CN1C(=O)c1nc(C(=O)NCC(C)(C)O)sc1-c1cnc(NC2(C)CCC2)cc1C(F)(F)F    9.17
CC[C@H](Nc1cc(C(F)F)c(-c2sc(C(=O)N[C@H](C)CO)nc2C(=O)N2CCC[C@@H]2C)cn1)C(F)(F)F    8.28

--- query ---
(Q) Hello, please tell me recorded pKd for this one: C[C@H]1CCCN1C(=O)c1nc(C(=O)N[C@H]2CC[C@@H]2O)sc1-c1cnc(NC(C)(C)C)cc1C(F)(F)F (relative stereo)
(A) 9.06

---

# study_system: full-length human RORγt (Homo sapiens (Human), UniProt P51449)
# assay_overview: RORγt (full-length human) reporter assay, Conditions B or C
# Assay type: cell-based
# condition_label: Conditions B or C; read-out: RORγt (FL) Reporter Assay B or C, IC50
pIC50 listing for selected compounds.
By convention, pIC50 is the negative base-10 log of a molar concentration.

Recorded pIC50, per entry:
C[C@H]1CCCCN1C(=O)c1nc(C(=O)NCC(C)(C)O)sc1-c1cnc(N[C@@H]2CCCCC2(F)F)cc1C(F)(F)F (relative stereo)    8.35
CC[C@H](Nc1cc(C(F)F)c(-c2sc(C(=O)N[C@@H]3C[C@H]3O)nc2C(=O)N2CCC[C@@H]2C)cn1)C(F)(F)F (relative stereo)    7.72
C[C@H](Nc1cc(C(F)(F)F)c(-c2sc(C(=O)NCC(C)(C)O)nc2C(=O)N2CC(F)(F)C[C@@H]2C)cn1)C(F)(F)F    7.59
C[C@H]1CC(F)(F)CN1C(=O)c1nc(C(=O)NCC(C)(C)O)sc1-c1cnc(NC(C)(C)C2CC2)cc1C(F)F    7.66
C[C@H]1CCCCN1C(=O)c1nc(C(=O)NCC(C)(C)O)sc1-c1cnc(N[C@H](C)C(F)(F)F)cc1C(F)(F)F    8.00

(Q) Hello, please tell me recorded pIC50 for this one: C[C@H](Nc1cc(C(F)F)c(-c2sc(C(=O)N[C@H]3COC[C@H]3O)nc2C(=O)N2CCC[C@@H]2C)cn1)C(F)(F)F (single isomer, unassigned)
(A) 6.39

(Q) Hello, please tell me recorded pIC50 for this one: `C[C@H](Nc1cc(C(F)(F)F)c(-c2sc(C(=O)N[C@H](C)C(C)(C)O)nc2C(=O)N2CC(F)(F)C[C@@H]2C)cn1)C1CC1`
(A) 7.38

(Q) Hello, please tell me recorded pIC50 for this one: C[C@H]1CCCN1C(=O)c1nc(C(=O)NCC(C)(C)O)sc1-c1cnc(N[C@@H]2CCCCC2(F)F)cc1C(F)(F)F (relative stereo)
(A) 7.70

Data provenance is patent US10975068B2.
